Could you please report measured normalized growth for the items listed next?
test: chemical genetic growth profiling, strain panel (AID 1159580);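 further: tested at 20 µM; growth read once vehicle control cultures reached saturation at 30 °C; 1 = growth at the plate median or of vehicle wells; lower values mean less growth of the strain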; settings: S. cerevisiae deletion strains, growth OD, locus YOR080W, strain dia2, stronger effect = lower value
In all, about 5,500 compounds went through this assay and about 2,000 (36%) were called active. Another 18% or so got no clear call; they are omitted. Some of the results follow.
Answers are plain numbers.

Below is a list of compounds. For each, state its recorded normalized growth.
1. CC1(C)N([O-])[N+](=O)C1(C)Br (centres undefined)
2. CCCn1c(=O)c2[nH]c(C3CCCC3)nc2n(CCC)c1=O
3. CC(=O)O[C@]1(C)CC[C@@]23CC1C(C)(C)[C@@H]2CC[C@H]3C

Solution:
1. 0.985
2. 0.984
3. 0.967

Below is a list of compounds. For each, state its recorded normalized growth.
1. COc1ccc2oc3ccccc3c(=O)c2c1
2. COc1cc(NS(C)(=O)=O)ccc1Cc1c2ccccc2nc2ccccc12
3. O=C(O)C(O)C(O)C(=O)O (centres undefined)
4. C[C@@H]1CC[C@H]2C(C)(C)C3CC12CC[C@@]3(C)O (some centres undefined)
5. CC(C)(S)[C@@H](N)C(=O)O
6. CN(C)CCC(c1ccccc1)c1ccccn1 (centres undefined)

Solution:
1: 0.959; 2: 0.494; 3: 1; 4: 0.967; 5: 1; 6: 1.01
